Test system: SARS-CoV-2 (IPBCAMS-YL01/2020)
Experiment: in vitro
Conditions: human
# selectivity ratio per record follows

Example cases with answers are listed next.
cpd.smiles	measurement
CN1CCN(CCCN2c3ccccc3Sc3ccc(C(F)(F)F)cc32)CC1	10.7
COc1ccc2cc1Oc1ccc(cc1)C[C@H]1c3c(cc4c(c3Oc3cc5c(cc3OC)CCN(C)[C@@H]5C2)OCO4)CCN1C	18.5

API: the following record is the query input.
Query: # selectivity ratio lookup, item CC(C)(O)CNc1nc(Nc2ccnc(C(F)(F)F)c2)nc(-c2cccc(C(F)(F)F)n2)n1
Response: 1.17

====

Target: HSP90AB1 (Homo sapiens)
Construct: HSP90AB1 protein was detected using a specific antibody after the A549 cells were treated with Cepharanthine; endogenous in cells
Sequence (P08238 whole entry): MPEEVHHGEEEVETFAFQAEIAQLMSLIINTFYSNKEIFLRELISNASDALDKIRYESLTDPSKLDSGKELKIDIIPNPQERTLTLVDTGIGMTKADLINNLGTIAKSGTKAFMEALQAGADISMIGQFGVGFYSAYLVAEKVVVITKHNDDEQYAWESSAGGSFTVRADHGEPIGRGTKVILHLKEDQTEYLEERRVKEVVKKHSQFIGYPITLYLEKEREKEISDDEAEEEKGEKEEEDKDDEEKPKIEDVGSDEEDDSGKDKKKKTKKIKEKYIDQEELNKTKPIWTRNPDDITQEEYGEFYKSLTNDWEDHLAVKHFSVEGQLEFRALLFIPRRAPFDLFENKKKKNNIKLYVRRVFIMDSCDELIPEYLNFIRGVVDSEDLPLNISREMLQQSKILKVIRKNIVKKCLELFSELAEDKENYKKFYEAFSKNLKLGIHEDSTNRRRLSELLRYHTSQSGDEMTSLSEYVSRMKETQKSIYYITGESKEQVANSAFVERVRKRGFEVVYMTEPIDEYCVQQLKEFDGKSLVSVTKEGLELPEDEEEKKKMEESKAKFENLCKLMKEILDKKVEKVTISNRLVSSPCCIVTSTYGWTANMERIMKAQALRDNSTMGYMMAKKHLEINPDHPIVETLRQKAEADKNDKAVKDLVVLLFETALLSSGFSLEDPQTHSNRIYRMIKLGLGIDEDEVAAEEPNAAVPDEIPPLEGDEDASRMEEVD
Assay: biochemical
measured.metric: Kd

Query: I'd like to know its Kd. The compound in question is COc1ccc2cc1Oc1ccc(cc1)C[C@H]1c3c(cc4c(c3Oc3cc5c(cc3OC)CCN(C)[C@@H]5C2)OCO4)CCN1C
Response: 3.5 µM
